Cited source for all entries: the supplement of paper PMC11865577

tested on: TO-3-N3-2 (biotin conjugate); experiment: pull-down binding Z-score (relative to library population); higher = stronger binding; details: RNA library: Library-2
Hi, to clarify the labels: True covers pull-down binding Z-score from 0.1 upward, False covers anything below 0.1.

Does pull-down binding Z-score meet or surpass 0.1 for UGUGGAAAGGGCUAUCAUCUUAUGUCCUUCCCUCA [DMSMaPseq_invitro_SARS-CoV-2_Motif_440] ?
False

Does pull-down binding Z-score meet or surpass 0.1 for GCGCUGCCAGAAACUGGCAAAGCGC [bulge-AA] ?
False

Does pull-down binding Z-score meet or surpass 0.1 for GUUCAGAGUUUAUUCUAGUGCGAAUAAUUGCACUUUUGAAUAUGUCUCUCAGC ?
False

Does pull-down binding Z-score meet or surpass 0.1 for GGACGUCACCACCAUGGCC [hsa-mir-650] ?
True

* * *

tested on: TO-3-N3 (biotin conjugate); assay: pull-down binding Z-score (relative to library population); higher = stronger binding; conditions: RNA library: Library-2
Hi, to clarify the labels: Satisfied covers pull-down binding Z-score from -0.05 upward, Not satisfied covers anything below -0.05.

Does pull-down binding Z-score meet or surpass -0.05 for UUCAUAGGGAAGCCUUUCCAUGAA [hsa-mir-4738] ?
Not satisfied

Does pull-down binding Z-score meet or surpass -0.05 for CCCACGGCCCUUGUCAGUGUG [hsa-mir-3190] ?
Satisfied

Does pull-down binding Z-score meet or surpass -0.05 for ACCCAGGACUCUUUCAUGACCA [hsa-mir-665] ?
Satisfied

Does pull-down binding Z-score meet or surpass -0.05 for UGGCAAAGACAUAGAUUGUUUAGCUACCCCUUUGCCA [hsa-mir-3119-2] ?
Not satisfied

Does pull-down binding Z-score meet or surpass -0.05 for GGCACUGGGUAUCGUAGGUGCC [hsa-mir-3116-1] ?
Satisfied

Does pull-down binding Z-score meet or surpass -0.05 for UGUCGUAGAAAGUAAUGGCA [hsa-mir-548l] ?
Satisfied

* * *

system: G-clamp-N3 (biotin conjugate); experiment: pull-down binding Z-score (relative to library population); higher = stronger binding; conditions: RNA library: Library-1 (pre-miRNA loops + repeats)
Assignment: determine reported pull-down binding Z-score for the given sequences.

Please indicate pull-down binding Z-score recorded for UUAAUGAGGCCAUAGA [hsa-mir-6863]
-0.397

Please indicate pull-down binding Z-score recorded for GAGCUCAGGAGCUC [hsa-mir-8052]
0.271

Please indicate pull-down binding Z-score recorded for GUAGAUUGAAAGCCCUAAUUUUAC [hsa-mir-3941]
-0.805

Please indicate pull-down binding Z-score recorded for CGAGAAGCGCCUGCGUCUCCCAUUUUCG [hsa-mir-3944]
-1

Please indicate pull-down binding Z-score recorded for UGAGGUUUACUAUGGAACCUCA [hsa-mir-4465]
0.714

Please indicate pull-down binding Z-score recorded for ACAUGAAAAUAAAAUGUAAAUUAUUUUAUUUCUAUCA [hsa-mir-3671]
-0.346

Please indicate pull-down binding Z-score recorded for UCUUCCCGGAGUCGGGAAAA [hsa-mir-320a]
1.85

Please indicate pull-down binding Z-score recorded for UUCAGCCUAAAGCAAUGAGAAGCCUCUGAAAGGCUGA [hsa-mir-1827]
-0.0259

Please indicate pull-down binding Z-score recorded for GUAUGAGUGUAUUGGUCUUCAUAA [hsa-mir-9-2]
-0.373

Please indicate pull-down binding Z-score recorded for GGUUGGCCGCUGACCCCCGCGGGGCCCCCGGCGGCC [hsa-mir-3195]
0.0226

Please indicate pull-down binding Z-score recorded for UUUGCCAGAGCUACAAAGGCAAA [hsa-mir-561]
0.627

* * *

test system: TO-N3 (biotin conjugate); test: pull-down binding Z-score (relative to library population); higher = stronger binding; conditions: RNA library: Library-2
Property Measured: pull-down binding Z-score
Simply state the number, no unit and no words.

Please indicate pull-down binding Z-score recorded for CAGAGUCACAUGUUGACACUG
-0.0159

Please indicate pull-down binding Z-score recorded for UGUUCAUGUCUCUCUGUGCACAGGGGACGAGAGUCA [hsa-mir-4420]
-0.35

Please indicate pull-down binding Z-score recorded for CAAUAGUAAAAAGACAACCUGUUG [hsa-mir-3133]
-0.651

Please indicate pull-down binding Z-score recorded for GUGGUUAUACCUACUAAAAAGGCUGGUGGCACUACUGAAAUGCUAGCGAAAGCUUUGAGAAAAGUGCCAACAGACAAUUAUAUAACCAC
-0.353

Please indicate pull-down binding Z-score recorded for GACUUCAGUAACUCAGGUUCUGAUGUU
-0.829

* * *

tested on: TO-3-N3 (biotin conjugate); test: pull-down binding Z-score (relative to library population); higher = stronger binding; conditions: RNA library: Library-2
Property Measured: pull-down binding Z-score
Simply state the number, no unit and no words.

Please indicate pull-down binding Z-score recorded for GGGCUCAUACCC [IAV_invivo_HA_4_Motif_7+IAV_invivo_HA_4_Motif_7]
0.721

Please indicate pull-down binding Z-score recorded for GUGAGCUGGAAAUGGGGUGCUAC [hsa-mir-598]
1.46

Please indicate pull-down binding Z-score recorded for AGUGGACGAGUCUCAUUA [hsa-mir-3193]
0.224

Please indicate pull-down binding Z-score recorded for AGUCUGUCUCAUACCCAACCAGAUU [hsa-mir-205]
0.258

Please indicate pull-down binding Z-score recorded for CAAUGUGUGAUAUCAGACAACUACUAUUUGUAGUUGAAGUUGUUGAUAAGUACUUUG [DMSMaPseq_invitro_SARS-CoV-2_Motif_268]
-0.462

Please indicate pull-down binding Z-score recorded for CCACCCACCAGGGAGCUUUCCAUGGGCUGUGGG [hsa-mir-4725]
0.47

Please indicate pull-down binding Z-score recorded for UCUGCACUGUUAGCGGGUACAAUCACUUCUGGUUGGACCUUUGGUGCAGG
-0.66

Please indicate pull-down binding Z-score recorded for AGUCAUAGUCAGUUAGGUGGUUUACAUCUACUGAUUGGACU
-1.18

Please indicate pull-down binding Z-score recorded for CACAAAUAUGGCUCUUUGUG [hsa-mir-4474]
-0.637

Please indicate pull-down binding Z-score recorded for UGGUUUCCAACCCACUAAUGGUGUUGGUUACCA
-0.662

Please indicate pull-down binding Z-score recorded for UGUAUAUAGCAUAUGUGUAUACAUACACACACACACACACACACACACA [hsa-mir-8485]
0.396

Please indicate pull-down binding Z-score recorded for GCGGGGGUGGGGGCCUCGCCCUGCUUGGGCCCUCCCUGAC [hsa-mir-6821]
2.12

Please indicate pull-down binding Z-score recorded for UUUUAGAA [hsa-mir-4443]
-0.568

Please indicate pull-down binding Z-score recorded for AAGGGAGGGGCGGGUCGGGAA [G4_2A2_NRAS]
8.72

Please indicate pull-down binding Z-score recorded for GUACCAAAGGUGC [IAV_invivo_PB1_2_Motif_35+IAV_invivo_PB1_2_Motif_35]
-0.101

Please indicate pull-down binding Z-score recorded for AAUUUUUUUUUAAUUUAAAAAAUU [hsa-mir-3938]
-0.808

Please indicate pull-down binding Z-score recorded for ACGAUAUAUAUACUGCCCUGCUUUUAUACAUACAUACAUACAUACCUAUAUCGU [hsa-mir-4536-1]
-0.603

Please indicate pull-down binding Z-score recorded for GCUAACAAACAUGCUGAUUUUGACACAUGGUUUAGCCAGCGUGGUGGUAGU
-0.205

Please indicate pull-down binding Z-score recorded for AUAAGAAAGACAAUUCUUAU [DMSMaPseq_invitro_SARS-CoV-2_Motif_114]
-0.755

Please indicate pull-down binding Z-score recorded for AUGCUGUUACAGCGU
-0.973

Please indicate pull-down binding Z-score recorded for GACUACUAGCGUGCCUUUGUAAGCACAAGCUGAUGAGUACGAACUUAUGUACUCAUUCGUUUCGGAAGAGACAGGUACGUUAAUAGUU [SHAPE_invitro_SARS-CoV-2_Multi_71_ComplexLevel_1]
0.389

Please indicate pull-down binding Z-score recorded for UAGAUGUUAUAAAAAUAUAUAUCUG [hsa-mir-4680]
-0.708

Please indicate pull-down binding Z-score recorded for CGUAGGCGUUAUGAUUUCUGACCUAUG [hsa-mir-379]
-0.513

Please indicate pull-down binding Z-score recorded for CACGUGCUGCUUGUAUAGACAUGAG [hsa-mir-3659]
0.88

Please indicate pull-down binding Z-score recorded for GGGUACGACUUUGAAAGGGAGGGAUACUCUCUAGUCGGAAUAGACCC [IAV_invivo_NP_5_Motif_16+IAV_invivo_NP_5_Motif_16]
0.779

Please indicate pull-down binding Z-score recorded for UUGCCCAA [hsa-mir-548bb]
-0.0547

Please indicate pull-down binding Z-score recorded for ACAGAGACUGAUAGUAAGUUCUCUGU [IAV_invivo_NA_6_Motif_16+IAV_invivo_NA_6_Motif_16]
-0.363

Please indicate pull-down binding Z-score recorded for GCCAGUCAGCGCUCACAUUAAGGCUGAC [hsa-mir-2277]
-0.289

Please indicate pull-down binding Z-score recorded for UGGCUGCUUGGGUCAAGUCAGCAGCCA [hsa-mir-449b]
-0.201

Please indicate pull-down binding Z-score recorded for CUGCUUUUGGCUUAGUUGCAG
0.285

Please indicate pull-down binding Z-score recorded for CUUGAUUUAAUGUCAUACAAUUAAG [hsa-mir-124-2]
-0.687

Please indicate pull-down binding Z-score recorded for GUGCGGCACAGGCACUAGUACUGAUGUCGUAU [SHAPE_invitro_SARS-CoV-2_Motif_246]
0.297

Please indicate pull-down binding Z-score recorded for GUUGCUUAGAUUACAUGUAAC [hsa-mir-890]
-0.632

Please indicate pull-down binding Z-score recorded for GUGGAACUGACCUGCCCCCUUUCUC [hsa-mir-6817]
0.152

Please indicate pull-down binding Z-score recorded for GAGGUAAGUAUGAUACUUACCUG [U1snRNP5ss-8]
-0.664

Please indicate pull-down binding Z-score recorded for CCUAUACUGUUACUAGAUCAGGCAUUAGUGUCUGAUGUUGGUGAUAGUGCGG [DMSMaPseq_invitro_SARS-CoV-2_Motif_147]
0.0141

Please indicate pull-down binding Z-score recorded for AGCGCGGCGACCGUAACUCCU [hsa-mir-1237]
0.152

Please indicate pull-down binding Z-score recorded for CCUUCACACUCAAAGGCGGUGCACCAACAAAGGUUACUUUUGGUGAUGACACUGUGAUAGAAGUGCAAGG [SHAPE_invitro_SARS-CoV-2_Motif_51]
-0.728

Please indicate pull-down binding Z-score recorded for GAUAUGCCAUUAUGUGGGUCAUGAGGUGGUGA [hsa-mir-6864]
0.197
